target: Papain (Carica papaya) (UniProt P00784)
Sequence (P00784 whole entry, looked up): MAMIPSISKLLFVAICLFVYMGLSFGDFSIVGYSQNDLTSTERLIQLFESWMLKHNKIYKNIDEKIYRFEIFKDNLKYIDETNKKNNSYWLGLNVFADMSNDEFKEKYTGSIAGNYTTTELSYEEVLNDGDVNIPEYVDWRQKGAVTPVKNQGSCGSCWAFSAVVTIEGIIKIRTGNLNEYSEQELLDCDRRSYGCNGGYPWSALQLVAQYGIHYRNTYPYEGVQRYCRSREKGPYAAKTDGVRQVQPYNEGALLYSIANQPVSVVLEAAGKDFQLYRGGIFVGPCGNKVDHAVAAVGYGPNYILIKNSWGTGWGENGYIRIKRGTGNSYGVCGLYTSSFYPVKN
experiment.notes: Primary qHTS assay for inhibitors of the protease papain (AID 1645873);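 further: papain turnover of Z-FR-AMC read as the AMC fluorescence gain over 10 min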
condition: papain Z-FR-AMC cleavage, AMC fluorescence; series mostly up to 49.8 µM
Inconclusive results are not listed. Active and inactive are the calls of the source. The call rests on the fitted dose curve; in most records, active means well fitted inhibition curve with a large enough effect; inconclusive means small, poorly fitted or top-dose-only effect; inactive means no such curve, though single readings can be large or run the other way.
Please reply with one of these outcomes: class 1 for active, class 0 for inactive

1. Nc1cc(Cl)c(NC2=NCCN2)c(Cl)c1 :: class 0
2. CCC(NC(C)C)C(O)c1ccc(O)c(O)c1 (stereo unspecified) :: class 0
3. C[C@]12CC[C@@H]3c4ccc(O)cc4CC[C@H]3[C@@H]1CC[C@@H]2O :: class 0
4. C1CCc2nnnn2CC1 :: class 0
5. COc1cc2c(cc1O)CC[C@@H]1[C@@H]2CC[C@]2(C)[C@@H](O)CC[C@@H]12 :: class 0

Entry COc1cc(NS(C)(=O)=O)ccc1Nc1c2ccccc2nc2ccccc12 : call = ?
class 1

Entry CC(=O)O[C@H]1C[C@@H]2CC[C@@H]3[C@H](CC[C@@]4(C)[C@H]3C[C@H]([N+]3(C)CCCCC3)[C@@H]4OC(C)=O)[C@@]2(C)C[C@@H]1[N+]1(C)CCCCC1 : call = ?
class 0

Entry CC1(C)CCC(NC(=O)[C@@H](N)CCC(=O)O)CC1 : call = ?
class 0

Entry CNCCC=C1c2ccccc2CCc2ccccc21 : call = ?
class 0

Entry Oc1ccc(O)cc1 : call = ?
class 0

Entry COC(=O)[C@H]1[C@H]2C[C@H]3c4[nH]c5ccccc5c4CCN3C[C@H]2CC[C@@H]1O : call = ?
class 0

---

Tested on: DFO2036
experiment.notes: qHTS profiling for inhibitors of Plasmodium falciparum proliferation (AID 504749); further: nearly all actives have a fitted effect of over 60% in size
condition: P. falciparum in erythrocytes, SYBR Green DNA, 72 h; series mostly up to 28.7 µM
Results filed as inconclusive are left out. Active and inactive are the calls of the source. Calls come from the whole dose curve; as a rule, active = well fitted inhibition curve with a large enough effect; inconclusive = small, poorly fitted or top-dose-only effect; inactive = flat fitted curve, though single readings scatter.
Please reply with one of these outcomes: active, inactive

1) CCOc1ccc(Cc2nccc3cc(OCC)c(OCC)cc23)cc1OCC :: inactive

Entry COCc1c(C(C)C)nc(C(C)C)c(/C=C/[C@@H](O)C[C@@H](O)CC(=O)O)c1-c1ccc(F)cc1 : call = ?
inactive

Entry O=C(O)CNC(=O)c1ccccc1 : call = ?
inactive

Entry NCCCC[C@H](N[C@@H](CCc1ccccc1)C(=O)O)C(=O)N1CCC[C@H]1C(=O)O : call = ?
inactive

---

Tested on: N140
experiment.notes: qHTS profiling for inhibitors of Plasmodium falciparum proliferation (AID 504749); further: nearly all actives have a fitted effect of over 60% in size; further: potency means the concentration at half of the fitted maximal effect
condition: P. falciparum in erythrocytes, SYBR Green DNA, 72 h; series mostly up to 28.7 µM
Results filed as inconclusive are left out. Calls of active or inactive are those of the source. The call rests on the fitted dose curve; in most records, active means well fitted inhibition curve with a large enough effect; inconclusive means small, poorly fitted or top-dose-only effect; inactive means flat fitted curve, though single readings scatter.
property.name: Potency

The following molecules have reported results that may help.
1) CCN1CCC[C@H]1CNC(=O)c1c(OC)ccc(Br)c1OC :: inactive
2) CC(C)(C)CC(C)(C)c1ccc(O)c(Cc2ccc(Cl)cc2Cl)c1 :: 0.794 µM (active)
3) CNCCC=C1c2ccccc2CCc2ccccc21 :: 7.08 µM (active)
4) Cc1cc(N)c2cc(NC(=O)Nc3ccc4nc(C)cc(N)c4c3)ccc2n1 :: 11.2 µM (active)
5) CCCCN1CCCC1C(=O)Nc1c(C)cc(C)cc1C (stereo not given) :: inactive
6) CCN1CCN(c2cc3c(cc2F)c(=O)c(C(=O)O)cn3C2CC2)CC1 :: inactive

Supply measured Potency of C[C@]12CC[C@@H]3c4ccc(O)cc4CC[C@H]3[C@@H]1CC[C@@H]2O in your reply.
inactive

Supply measured Potency of CCOC(=O)OC(C)OC1=C(C(=O)Nc2ccccn2)N(C)S(=O)(=O)c2ccccc21 (stereo not given) in your reply.
inactive

Supply measured Potency of O=C(Nc1ccc(Oc2ccc(Cl)cc2)c(Cl)c1)c1cc(I)cc(I)c1O in your reply.
inactive

Supply measured Potency of NC(=NCCCCCCN=C(N)/N=C(\N)Nc1ccc(Cl)cc1)/N=C(\N)Nc1ccc(Cl)cc1 in your reply.
0.004 µM (active)
